target: UniProtKB P30542; experiment: Displacement of [3H]-R-PIA from recombinant human adenosine A1 receptor expressed in CHO cells after 60 mins by scintillation counting analysis
Sequence (P30542 whole entry): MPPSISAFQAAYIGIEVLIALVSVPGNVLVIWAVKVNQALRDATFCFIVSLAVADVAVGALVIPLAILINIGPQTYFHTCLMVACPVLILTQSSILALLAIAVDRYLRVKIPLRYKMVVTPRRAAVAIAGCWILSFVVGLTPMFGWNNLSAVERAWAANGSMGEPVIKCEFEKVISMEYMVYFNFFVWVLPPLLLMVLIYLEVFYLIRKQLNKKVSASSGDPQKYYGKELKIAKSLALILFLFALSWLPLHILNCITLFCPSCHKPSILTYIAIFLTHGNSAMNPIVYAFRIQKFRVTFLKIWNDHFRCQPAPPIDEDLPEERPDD
pKi: −log10 of the molar value.
value-type: pKi

- structure: "CCCCC#Cc1nc(NC2CCCC2)c2ncn([C@H]3[C@H](O)[C@H](O)[C@@H]4C[C@@H]43)c2n1"
  observed-result: 5.80
- structure: "CCCCC#Cc1nc(NC2CC2)c2ncn([C@H]3[C@H](O)[C@H](O)[C@@H]4C[C@@H]43)c2n1"
  observed-result: 5.66

---

target: UniProt P0DMS8; test: Displacement of [125I]-I-AB-MECA from recombinant human adenosine A3 receptor expressed in CHO cells after 60 mins by gamma counting analysis
Sequence (P0DMS8 whole entry): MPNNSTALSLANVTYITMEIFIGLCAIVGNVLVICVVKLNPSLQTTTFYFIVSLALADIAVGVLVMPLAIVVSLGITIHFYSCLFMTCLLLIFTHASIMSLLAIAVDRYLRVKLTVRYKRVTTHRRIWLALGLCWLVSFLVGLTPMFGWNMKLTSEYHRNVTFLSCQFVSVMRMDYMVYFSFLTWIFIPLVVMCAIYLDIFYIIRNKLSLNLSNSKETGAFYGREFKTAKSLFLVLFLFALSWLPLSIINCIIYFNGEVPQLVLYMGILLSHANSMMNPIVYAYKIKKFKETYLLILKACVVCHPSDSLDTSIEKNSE
value-type: Ki (nM)

- structure: "CCCCC#Cc1nc(NCc2cccc(Cl)c2)c2ncn([C@H]3[C@H](O)[C@H](O)[C@@H]4C[C@@H]43)c2n1"
  Ki (nM): 7.8
- structure: "CCCCC#Cc1nc(NC2CC2)c2ncn([C@H]3[C@H](O)[C@H](O)[C@@H]4C[C@@H]43)c2n1"
  Ki (nM): 9.2
- structure: "CCCCC#Cc1nc(NCc2cccc(Br)c2)c2ncn([C@H]3[C@H](O)[C@H](O)[C@@H]4C[C@@H]43)c2n1"
  Ki (nM): 8.6
- structure: "CCCCC#Cc1nc(NCc2cccc(F)c2)c2ncn([C@H]3[C@H](O)[C@H](O)[C@@H]4C[C@@H]43)c2n1"
  Ki (nM): 16

I: CCCCC#Cc1nc(NCC)c2ncn([C@H]3[C@H](O)[C@H](O)[C@@H]4C[C@@H]43)c2n1
II: CCCCC#Cc1nc(NCc2cccc(I)c2)c2ncn([C@H]3[C@H](O)[C@H](O)[C@@H]4C[C@@H]43)c2n1
Req: Field: entry with larger Ki (options I / II ). Choose, then provide that item's label.
Resp: II
(II: 12 nM, I: 6.7 nM)

The origin of these recorded values is ChEMBL document CHEMBL3124893.
